tested on: DMS-114 complex spheroids with HUVEC/MSC, growth % test/control; assay: Anticancer human tumor DMS-114 cell line growth inhibition [AhR]; details: second compound 1 µM; first compound 0.0316 µM; hits give low values;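 further: spheroids exposed to agents for 7 days before readout; 100% = DMSO vehicle control wells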
PROPERTY_MEASURED: viability, T/C

# COMPOUND, viability, T/C
rows = [
    ("Nc1ccn(C2OC(CO)C(O)C2(F)F)c(=O)n1 (stereo unspecified) + Cc1ccccc1N=Nc1ccc(NC(=O)c2ccnn2C)c(C)c1", "25.5%"),
    ("COc1cc(C2c3cc4c(cc3C(OC3OC5COC(C)OC5C(O)C3O)C3COC(=O)C23)OCO4)cc(OC)c1O (stereo unspecified) + Cc1cncc(-c2nc(NCCc3c[nH]c4ccccc34)c3ncn(C(C)C)c3n2)c1", "92.7%"),
    ("CC(C)c1c(-c2ccccc2)nc2c(C#N)c[nH]n2c1=O + CC(CO)NC(=O)c1cc(-c2ccc(Cl)cc2)nn(-c2cnn(C)c2)c1=O", "93.7%"),
    ("Nc1ncn(C2CC(O)C(CO)O2)c(=O)n1 (stereo unspecified) + CC(CO)NC(=O)c1cc(-c2ccc(Cl)cc2)nn(-c2cnn(C)c2)c1=O", "90.3%"),
    ("COc1cc(Nc2ncc3c(n2)-c2ccc(Cl)cc2C(c2c(F)cccc2OC)=NC3)ccc1C(=O)O + Cc1cncc(-c2nc(NCCc3c[nH]c4ccccc34)c3ncn(C(C)C)c3n2)c1", "30.1%"),
]

// COc1cccc2c1C(=O)c1c(O)c3c(c(O)c1C2=O)CC(O)(C(=O)CO)CC3OC1CC(N)C(O)C(C)O1 (stereo unspecified) + Cc1ccccc1N=Nc1ccc(NC(=O)c2ccnn2C)c(C)c1 : viability, T/C value = 71.4%

* * *

Entries annotated with measured viability, T/C
tested on: DMS-114 complex spheroids with HUVEC/MSC, growth % test/control; experiment: Anticancer human tumor DMS-114 cell line growth inhibition [AhR]; conditions: second compound 0.1 µM; first compound 0.1 µM; hits give low values;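 further: spheroids exposed to agents for 7 days before readout; 100% = DMSO vehicle control wells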
Hi! Could you send only the number? It should be in %, unit omitted.

# COMPOUND, viability, T/C [%]
records = [
    ("CC[C@@]1(O)C(=O)OCc2c1cc1n(c2=O)Cc2cc3c(CN(C)C)c(O)ccc3nc2-1 + CC(CO)NC(=O)c1cc(-c2ccc(Cl)cc2)nn(-c2cnn(C)c2)c1=O", 27.2),
    ("Nc1ccn(C2OC(CO)C(O)C2(F)F)c(=O)n1 (stereo not drawn) + Cc1ccccc1N=Nc1ccc(NC(=O)c2ccnn2C)c(C)c1", 23.8),
]

Kindly consider the entry below.
// COc1ccc([C@@H](O)c2cc(-c3ncnc4cc(N5CCOCC5)ccc34)c(F)cc2Cl)nn1 + Cc1ccccc1N=Nc1ccc(NC(=O)c2ccnn2C)c(C)c1 : viability, T/C value = 106

* * *

system: DMS-114 complex spheroids with HUVEC/MSC, growth % test/control; assay: Anticancer human tumor DMS-114 cell line growth inhibition [AhR]; conditions: second compound 3.16 µM; first compound 0.00949 µM; hits give low values;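 further: spheroids exposed to agents for 7 days before readout; 100% = DMSO vehicle control wells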
PROPERTY_MEASURED: viability, T/C (%)
Hi! Could you send only the number? It should be in %, unit omitted.

# MOLECULE, UNITS_SYMBOL, viability, T/C
rows = [
    ("CC(C)CC(NC(=O)C(Cc1ccccc1)NC(=O)c1cnccn1)B(O)O (stereo not given) + CC(CO)NC(=O)c1cc(-c2ccc(Cl)cc2)nn(-c2cnn(C)c2)c1=O", "%", 0.8),
]

Kindly consider the entry below.
// Nc1ncn(C2CC(O)C(CO)S2)c(=O)n1 (stereo not given) + Cc1cncc(-c2nc(NCCc3c[nH]c4ccccc34)c3ncn(C(C)C)c3n2)c1 : viability, T/C value = 93.2
